// data source = ChEMBL document CHEMBL3425454

- Test system: MDA-MB-435
- testName: Cytotoxicity against human MDA-MB-435 cells assessed as cell growth inhibition after 72 hrs by MTT assay
- Assay type: functional, cell-based
- particulars: MDA-MB-435, 72 h
endpointName: IC50 (µM)
The answer is to be given in µM; state only the numeric part.

// known answers, use as guide
COC(=O)c1ccc(-c2ccc(-c3ccc(O)cc3)c(OC)c2OC)cc1O : 20.9
COc1ccc(-c2ccc(-c3ccc(OC)c(OC)c3)c(OC)c2OC)cc1OC : 90.8
Oc1ccc(-c2ccc(-c3ccc(O)c(O)c3)c(O)c2O)cc1 : 4.1
COC(=O)c1cc(-c2ccc(-c3ccc(O)cc3)c(OC)c2OC)ccc1O : 44.8
COc1ccc(-c2cccc(OC)c2OC)cc1OC : 23.1
COc1c(-c2ccc(O)c([N+](=O)[O-])c2)ccc(-c2ccc(O)c([N+](=O)[O-])c2)c1OC : 61.8
COc1cc([C@@H]2c3cc4c(cc3[C@@H](O[C@@H]3O[C@@H]5CO[C@@H](C)O[C@H]5[C@H](O)[C@H]3O)[C@H]3COC(=O)[C@H]23)OCO4)cc(OC)c1O [ETOPOSIDE] : 2.81
Oc1ccc(-c2ccc(-c3ccc(O)c(O)c3)c(O)c2O)cc1O : 3.96

Attention now shifts to the item below.
IC50 reported for this compound COc1c(-c2ccc(O)cc2)ccc(-c2ccc(O)cc2)c1OC : 14.7

====

- Tested on: MDA-MB-435
- testName: Cytotoxicity against human MDA-MB-435 cells assessed as cell growth inhibition after 72 hrs by MTT assay
- Type: functional, cell-based
- particulars: MDA-MB-435, 72 h
pIC50: −log10 of the molar value.
endpointName: pIC50

// known answers, use as guide
O=[N+]([O-])c1cc(-c2ccc(O)c([N+](=O)[O-])c2)ccc1O : < 4.00
Oc1ccc(-c2ccc(-c3ccc(O)cc3)c(O)c2O)cc1 : < 4.00
O=C(O)c1ccc(-c2ccc(-c3ccc(O)c(O)c3)c(O)c2O)cc1 : < 4.00
CCOc1c(-c2ccc(OC)c(OC)c2)ccc(-c2ccc(OC)c(OC)c2)c1OCC : < 4.00
COc1ccc(-c2ccc(-c3ccc(OC)c(OC)c3)c(OC(C)=O)c2OC(C)=O)cc1OC : < 4.00
COc1ccc(-c2ccc(-c3ccc(C(=O)O)cc3)c(OC)c2OC)cc1OC : < 4.00

pIC50 reported for this compound COc1c(-c2ccc(O)cc2)ccc(-c2ccc(O)c(C(=O)O)c2)c1OC : < 4.00

pIC50 reported for this compound COc1c(-c2ccc(O)cc2)ccc(-c2ccc(C(=O)O)c(O)c2)c1OC : < 4.00

pIC50 reported for this compound O=C(O)c1ccc(-c2ccc(-c3ccc(O)cc3)c(O)c2O)cc1O : 4.43

pIC50 reported for this compound CCOc1c(-c2ccc(O)cc2)ccc(-c2ccc(O)cc2)c1OCC : 4.38

pIC50 reported for this compound O=C(O)c1cc(-c2ccc(-c3ccc(O)cc3)c(O)c2O)ccc1O : 4.00

pIC50 reported for this compound COc1ccc(-c2ccc(-c3ccc(OC)cc3)c(OC(C)=O)c2OC(C)=O)cc1 : 4.01
